Recorded values, source ChEMBL document CHEMBL4842385.

This section presents molecules with their documented pIC50 values.
# testedTarget: Protein deacetylase HDAC6 (Homo sapiens, UniProt Q9UBN7)
# Sequence (Q9UBN7 whole entry): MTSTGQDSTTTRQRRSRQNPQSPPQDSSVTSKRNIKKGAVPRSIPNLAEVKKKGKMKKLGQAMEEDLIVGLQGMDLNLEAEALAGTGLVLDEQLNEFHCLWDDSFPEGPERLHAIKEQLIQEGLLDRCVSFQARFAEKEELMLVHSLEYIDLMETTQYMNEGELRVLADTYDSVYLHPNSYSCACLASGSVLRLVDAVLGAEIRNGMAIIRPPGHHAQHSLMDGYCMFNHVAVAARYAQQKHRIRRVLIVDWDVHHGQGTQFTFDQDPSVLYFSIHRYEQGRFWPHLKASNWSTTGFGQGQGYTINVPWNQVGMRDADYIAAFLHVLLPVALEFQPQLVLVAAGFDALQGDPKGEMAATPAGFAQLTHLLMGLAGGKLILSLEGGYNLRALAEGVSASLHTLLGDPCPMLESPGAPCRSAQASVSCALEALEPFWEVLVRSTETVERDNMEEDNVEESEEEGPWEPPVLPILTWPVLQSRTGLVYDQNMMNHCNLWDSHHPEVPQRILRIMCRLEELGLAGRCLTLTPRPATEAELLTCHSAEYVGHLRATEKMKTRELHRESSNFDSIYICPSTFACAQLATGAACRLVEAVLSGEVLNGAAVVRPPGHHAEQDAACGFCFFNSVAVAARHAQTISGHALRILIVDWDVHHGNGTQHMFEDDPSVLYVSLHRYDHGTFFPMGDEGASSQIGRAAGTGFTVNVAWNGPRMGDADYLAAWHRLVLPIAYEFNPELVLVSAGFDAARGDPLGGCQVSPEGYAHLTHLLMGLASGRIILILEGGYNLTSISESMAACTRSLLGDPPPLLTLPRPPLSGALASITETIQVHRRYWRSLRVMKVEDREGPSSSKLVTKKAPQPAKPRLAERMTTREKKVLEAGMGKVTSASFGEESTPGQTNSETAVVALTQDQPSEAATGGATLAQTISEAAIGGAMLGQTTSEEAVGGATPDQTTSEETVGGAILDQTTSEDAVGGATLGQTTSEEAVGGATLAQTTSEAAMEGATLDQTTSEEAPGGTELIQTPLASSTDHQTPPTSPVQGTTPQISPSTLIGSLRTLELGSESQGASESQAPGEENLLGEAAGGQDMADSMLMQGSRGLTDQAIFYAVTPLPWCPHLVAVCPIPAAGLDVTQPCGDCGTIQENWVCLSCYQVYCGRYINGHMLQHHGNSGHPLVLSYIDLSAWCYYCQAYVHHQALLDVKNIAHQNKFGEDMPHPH
# assayRemarks: Inhibition of recombiant human HDAC6 using fluorogenic HDAC substrate 3 measured after 30 mins by fluorescence microplate reader assay
pIC50: −log10 of the molar value.

| molSmiles | pIC50 |
| --- | --- |
| O=C(CCCO/N=C1/C(=C2/C(=O)Nc3ccccc32)Nc2ccccc21)NO | 6.89 |
| C#CCN1C(=O)/C(=C2\Nc3ccccc3\C2=N/OCCCC(=O)NO)c2ccccc21 | 5.73 |

----------
# System: HeLa
# assayRemarks: Antiproliferative activity against human HeLa cells assessed as cell growth inhibition measured after 48 hrs by CCK8 assay
# Type: functional, cell-based

| molSmiles | testedTarget | IC50 |
| --- | --- | --- |
| O=C1Nc2ccccc2/C1=C1/Nc2ccccc2C1=O | HeLa | > 10 µM |
| O=C(CCCO/N=C1/C(=C2/C(=O)Nc3ccccc32)Nc2ccccc21)NO | HeLa | 0.8 µM |
| CC(=O)c1c(C)c2cnc(Nc3ccc(N4CCNCC4)cn3)nc2n(C2CCCC2)c1=O | HeLa | > 10 µM |
| O=C(O)CCCO/N=C1/C(=C2/C(=O)Nc3ccccc32)Nc2ccccc21 | HeLa | > 10 µM |
